Experiment: Cmax in CD1 mouse plasma at 750 umol/kg, ip
Format: ADME, organism-based
Parameters: dose 750 umol/kg, route intraperitoneal
experimental.endpoint: Cmax (µM)
Reply with just the number (in µM).

Dear colleague, I am looking for the recorded Cmax of the following compound: CCc1n[n+]([O-])c2ccc(OCCCN3CCOCC3)cc2[n+]1[O-]
150

###

Experiment: Terminal half life in CD1 mouse plasma at 421 umol/kg, ip
Type: ADME, organism-based
experimental.endpoint: half-life (min)
Please state the figure in min; there is no need to write the unit.

* COCCc1n[n+]([O-])c2ccccc2[n+]1[O-] | 18

GET /values?readout=half-life&item= CCc1n[n+]([O-])c2ccc(OCCN(C)C)cc2[n+]1[O-]
32.2
